Origin of values: ChEMBL document CHEMBL3046842

Tested on: Pseudomonas
EXPERIMENT DESCRIPTION: Antibacterial activity against Pseudomonas at 250 ug/ml after 24 to 45 hrs by disc diffusion method
Type: functional
CONDITION CONTEXT: read-out: IZ
Kindly supply the reported zone of inhibition at 250 µg/mL values for the records listed here.
One number for each entry, in mm.

Hi! Can you tell me zone of inhibition at 250 µg/mL for each of these compounds?
1. Cc1cc(N)cc2c1N1Cc3cc(N)cc(C)c3N(C2)C1
2. CCOc1ccc2c(c1)CN1CN2Cc2cc(OCC)ccc21
3. Clc1ccc2c(c1)N1Cc3ccc(Cl)cc3N(C2)C1
4. Cc1ccc2c(c1Br)CN1CN2Cc2c1ccc(C)c2Br
5. Fc1ccc2c(c1)N1Cc3ccc(F)cc3N(C2)C1
6. Cc1cc(N)c2c(c1)CN1CN2Cc2cc(C)cc(N)c21

Result:
1. 13
2. 20
3. 13
4. 13
5. 8
6. 13

---

System: Pseudomonas
EXPERIMENT DESCRIPTION: Antibacterial activity against Pseudomonas at 250 ug/ml after 24 to 45 hrs by disc diffusion method
Type: functional
CONDITION CONTEXT: read-out: IZ
MEASUREMENT NAME: zone of inhibition at 250 µg/mL (mm)
Give bare numbers, in mm.

Worked examples follow.
{"SMILES INPUT": "Nc1ccc2c(c1)CN1CN2Cc2cc(N)ccc21", "zone of inhibition at 250 µg/mL, mm": 13}
{"SMILES INPUT": "Clc1cccc2c1N1Cc3cccc(Cl)c3N(C2)C1", "zone of inhibition at 250 µg/mL, mm": 8}

Ask: Requested read-out: zone of inhibition at 250 µg/mL. Entry: "Fc1cccc2c1N1Cc3cccc(F)c3N(C2)C1"
Result: 8

---

Test system: Pseudomonas
EXPERIMENT DESCRIPTION: Antibacterial activity against Pseudomonas at 250 ug/ml after 24 to 45 hrs by disc diffusion method
Assay type: functional
CONDITION CONTEXT: read-out: IZ
MEASUREMENT NAME: zone of inhibition at 250 µg/mL
Phrase the answer as number then unit, nothing more needed.

{"SMILES INPUT": "Cc1cc(I)c2c(c1)CN1CN2Cc2cc(C)cc(I)c21", "zone of inhibition at 250 µg/mL": "8 mm"}
{"SMILES INPUT": "Cc1cc(Cl)c2c(c1)CN1CN2Cc2cc(C)cc(Cl)c21", "zone of inhibition at 250 µg/mL": "8 mm"}
{"SMILES INPUT": "CCCOC(=O)c1ccc2c(c1)CN1CN2Cc2cc(C(=O)OCCC)ccc21", "zone of inhibition at 250 µg/mL": "20 mm"}
{"SMILES INPUT": "Cc1cc2c(cc1Cl)N1Cc3cc(C)c(Cl)cc3N(C2)C1", "zone of inhibition at 250 µg/mL": "13 mm"}
{"SMILES INPUT": "CCOC(=O)c1ccc2c(c1)CN1CN2Cc2cc(C(=O)OCC)ccc21", "zone of inhibition at 250 µg/mL": "20 mm"}

Please state, for each entry, its recorded zone of inhibition at 250 µg/mL.
1. Cc1ccc2c(c1C)N1Cc3ccc(C)c(C)c3N(C2)C1
2. O=C(c1ccccc1)c1cc(Cl)cc2c1N1Cc3cc(Cl)cc(C(=O)c4ccccc4)c3N(C2)C1
3. Fc1cc2c(cc1Cl)N1Cc3cc(F)c(Cl)cc3N(C2)C1
4. Clc1cccc2c1CN1CN2Cc2c(Cl)cccc21
5. N#Cc1ccc2c(c1)CN1CN2Cc2cc(C#N)ccc21
6. Cc1cc2c(cc1I)N1Cc3cc(C)c(I)cc3N(C2)C1

Result:
1: 8 mm; 2: 13 mm; 3: 13 mm; 4: 8 mm; 5: 13 mm; 6: 8 mm

---

System: Penicillium
EXPERIMENT DESCRIPTION: Antifungal activity against Penicillium at 50 ug/ml after 72 hrs by disc diffusion method
Type: functional, organism-based
Active and inactive are the calls of the source. The rule behind the calls is not given here.
MEASUREMENT NAME: Activity

{"SMILES INPUT": "CCOc1ccc2c(c1)CN1CN2Cc2cc(OCC)ccc21", "Activity": "Active"}
{"SMILES INPUT": "Cc1cc(Cl)cc2c1N1Cc3cc(Cl)cc(C)c3N(C2)C1", "Activity": "Active"}
{"SMILES INPUT": "O=[N+]([O-])c1ccc2c(c1)CN1CN2Cc2cc([N+](=O)[O-])ccc21", "Activity": "inactive"}
{"SMILES INPUT": "Brc1cccc2c1N1Cc3cccc(Br)c3N(C2)C1", "Activity": "inactive"}
{"SMILES INPUT": "c1ccc2c(c1)CN1CN2Cc2ccccc21", "Activity": "inactive"}
{"SMILES INPUT": "Cc1cc(C)c2c(c1)CN1CN2Cc2cc(C)cc(C)c21", "Activity": "inactive"}
{"SMILES INPUT": "Cc1cccc2c1N1Cc3cccc(C)c3N(C2)C1", "Activity": "inactive"}
{"SMILES INPUT": "Cc1ccc2c(c1O)CN1CN2Cc2c1ccc(C)c2O", "Activity": "inactive"}

Provide each entry's Activity from the list below.
1. Cc1cc([N+](=O)[O-])cc2c1N1Cc3cc([N+](=O)[O-])cc(C)c3N(C2)C1
2. Cc1ccc2c(c1)CN1CN2Cc2cc(C)ccc21
3. Cc1ccc2c(c1Br)CN1CN2Cc2c1ccc(C)c2Br
4. O=C(c1ccccc1)c1cc(Cl)cc2c1N1Cc3cc(Cl)cc(C(=O)c4ccccc4)c3N(C2)C1
5. COc1cc(C)c2c(c1)CN1CN2Cc2cc(OC)cc(C)c21

Result:
["inactive", "inactive", "inactive", "inactive", "Active"]
